method_summary: Inhibition of human MAOB
condition_description: read-out: Kinact
What KI (inactivation) was measured for each of the following?
Numbers only, in µM.

N[C@@H]1C[C@H]1c1ccc(C(F)(F)F)cc1 (relative stereo) = 29.8

Next compound, please.
Challenge: Would you mind telling me what KI (inactivation) value was observed for N[C@@H]1C[C@H]1c1cccc2ccccc12 (relative stereo) ?
Response given: 38.7

----------
What kinact/KI was measured for each of the following?
measured_target: MAO-A (amine oxidase [flavin-containing] A), Homo sapiens (UniProt P21397)
Sequence (P21397 whole entry, looked up): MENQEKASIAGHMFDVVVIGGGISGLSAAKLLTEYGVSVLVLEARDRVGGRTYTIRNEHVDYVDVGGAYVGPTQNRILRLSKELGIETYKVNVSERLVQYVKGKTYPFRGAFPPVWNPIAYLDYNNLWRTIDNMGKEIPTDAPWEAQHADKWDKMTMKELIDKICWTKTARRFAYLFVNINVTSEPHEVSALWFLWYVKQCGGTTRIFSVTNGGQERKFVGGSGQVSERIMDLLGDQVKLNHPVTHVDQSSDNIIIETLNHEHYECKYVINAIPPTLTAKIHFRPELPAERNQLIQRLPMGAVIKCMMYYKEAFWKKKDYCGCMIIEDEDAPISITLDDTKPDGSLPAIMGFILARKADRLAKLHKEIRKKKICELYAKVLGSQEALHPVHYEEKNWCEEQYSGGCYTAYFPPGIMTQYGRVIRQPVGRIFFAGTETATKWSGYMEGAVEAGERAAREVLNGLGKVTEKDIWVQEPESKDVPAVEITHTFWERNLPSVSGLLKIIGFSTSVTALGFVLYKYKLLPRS
method_summary: Ratio of Kinact to KI of human MAOA
Give bare numbers, in M⁻¹ s⁻¹.

N[C@@H]1C[C@H]1c1ccc(C(F)(F)F)cc1 (relative stereo) = 2860

Next compound, please.
Challenge: What measured kinact/KI is associated with N[C@@H]1C[C@H]1c1cccc2ccccc12 (relative stereo) on MAO-A (amine oxidase [flavin-containing] A), Homo sapiens (UniProt P21397)?
Response given: 362

----------
measured_target: MAO-B (amine oxidase [flavin-containing] B), Homo sapiens (UniProt P27338)
Sequence (P27338 whole entry, looked up): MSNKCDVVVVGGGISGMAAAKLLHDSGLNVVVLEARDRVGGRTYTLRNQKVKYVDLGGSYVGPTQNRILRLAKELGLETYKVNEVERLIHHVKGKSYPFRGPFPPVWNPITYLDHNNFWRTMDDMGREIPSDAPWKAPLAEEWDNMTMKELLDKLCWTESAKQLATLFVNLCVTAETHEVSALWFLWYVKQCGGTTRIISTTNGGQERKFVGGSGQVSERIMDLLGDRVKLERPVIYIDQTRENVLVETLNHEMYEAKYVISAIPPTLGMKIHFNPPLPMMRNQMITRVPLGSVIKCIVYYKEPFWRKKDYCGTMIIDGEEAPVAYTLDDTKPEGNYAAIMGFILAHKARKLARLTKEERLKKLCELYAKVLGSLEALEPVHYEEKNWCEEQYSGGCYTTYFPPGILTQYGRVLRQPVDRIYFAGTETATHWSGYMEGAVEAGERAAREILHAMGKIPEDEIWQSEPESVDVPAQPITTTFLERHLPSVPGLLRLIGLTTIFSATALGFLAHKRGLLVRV
method_summary: Ratio of Kinact to KI of human MAOB
What kinact/KI was measured for each of the following?
One number for each entry, in M⁻¹ s⁻¹.

Examples with answers:
N[C@@H]1C[C@H]1c1cccc2ccccc12 (relative stereo) = 4840
N[C@@H]1C[C@H]1c1ccsc1 (relative stereo) = 22.3

Challenge: Would you mind telling me what kinact/KI value was observed for N[C@@H]1C[C@H]1c1ccc(C(F)(F)F)cc1 (relative stereo) ?
Response given: 7510
